Taken from ChEMBL document CHEMBL2311453.

# system-name: UniProt P05093
# Sequence (P05093 whole entry): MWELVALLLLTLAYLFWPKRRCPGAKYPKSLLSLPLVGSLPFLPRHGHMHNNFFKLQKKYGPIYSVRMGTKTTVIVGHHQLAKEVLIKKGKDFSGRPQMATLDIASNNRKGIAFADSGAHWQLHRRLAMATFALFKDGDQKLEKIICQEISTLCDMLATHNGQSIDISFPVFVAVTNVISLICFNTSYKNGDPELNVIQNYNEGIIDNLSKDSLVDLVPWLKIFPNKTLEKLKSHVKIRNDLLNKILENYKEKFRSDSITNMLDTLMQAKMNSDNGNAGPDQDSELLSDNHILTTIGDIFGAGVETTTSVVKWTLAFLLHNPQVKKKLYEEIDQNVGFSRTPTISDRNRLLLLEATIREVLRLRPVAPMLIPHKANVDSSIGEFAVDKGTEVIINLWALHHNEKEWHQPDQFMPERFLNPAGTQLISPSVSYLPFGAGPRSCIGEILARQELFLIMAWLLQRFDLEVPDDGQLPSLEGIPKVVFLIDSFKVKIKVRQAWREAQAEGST
# assay-procedure: Inhibition of human CYP17 expressed in Escherichia coli using progesterone as substrate at 2 uM
# test-conditions: probe progesterone
Here the recorded inhibition at 2 µM is given for each entry.
The reply should be a number in %, with the unit left off.

Some compounds with recorded inhibition at 2 µM:
q: Any idea what its inhibition at 2 µM is? The compound is O=C1CCc2cc(C(C3CC3)n3ccnc3)cc3c2N1CC3 (stereo unspecified)
a: 41

q: Any idea what its inhibition at 2 µM is? The compound is "O=C1CCc2cc(Cc3ccncc3)cc3c2N1CC3"
a: 8

q: Any idea what its inhibition at 2 µM is? The compound is COc1ccccc1C(c1ccncc1)c1cc2c3c(c1)CCN3C(=O)CC2 (stereo unspecified)
a: 33

q: Any idea what its inhibition at 2 µM is? The compound is COc1ccc(C(c2ccncc2)c2cc3c4c(c2)CCN4C(=O)CC3)cc1 (stereo in doubt; 3k)
a: 53

q: Any idea what its inhibition at 2 µM is? The compound is O=C1CCc2cc(C(c3ccncc3)c3ccc(F)cc3)cc3c2N1CC3 (stereo unspecified)
a: 55

q: Any idea what its inhibition at 2 µM is? The compound is O=C1CCc2cc(C(O)(c3ccccc3)c3ccncc3)cc3c2N1CC3 (stereo unspecified)
a: 43

q: Any idea what its inhibition at 2 µM is? The compound is O=C1CCc2cc(C(c3ccncc3)c3cccc(Cl)c3)cc3c2N1CC3 (stereo unspecified)
a: 58

q: Any idea what its inhibition at 2 µM is? The compound is COc1cccc(C(c2ccncc2)c2cc3c4c(c2)CCN4C(=O)CC3)c1 (stereo unspecified)
a: 50

Continuing:
q: Any idea what its inhibition at 2 µM is? The compound is O=C1CCc2cc(C(c3ccncc3)c3ccc(Cl)cc3)cc3c2N1CC3 (stereo unspecified)
a: 60

---

# system-name: Aromatase (Homo sapiens)
# Sequence (P11511 whole entry): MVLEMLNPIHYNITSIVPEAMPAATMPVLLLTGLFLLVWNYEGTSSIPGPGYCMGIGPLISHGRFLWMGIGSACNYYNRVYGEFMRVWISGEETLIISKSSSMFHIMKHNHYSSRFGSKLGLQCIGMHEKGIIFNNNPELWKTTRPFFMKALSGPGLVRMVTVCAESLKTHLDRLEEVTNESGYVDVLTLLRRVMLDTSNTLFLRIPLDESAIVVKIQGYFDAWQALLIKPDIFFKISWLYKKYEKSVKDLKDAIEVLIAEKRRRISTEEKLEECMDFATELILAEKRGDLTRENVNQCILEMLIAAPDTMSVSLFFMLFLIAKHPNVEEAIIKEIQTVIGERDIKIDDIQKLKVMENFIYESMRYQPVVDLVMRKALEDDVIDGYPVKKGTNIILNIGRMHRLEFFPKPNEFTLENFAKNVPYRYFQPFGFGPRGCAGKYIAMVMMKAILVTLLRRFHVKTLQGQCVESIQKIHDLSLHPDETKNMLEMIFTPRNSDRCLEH
Response field label takes true (1) when IC50 is strictly below 100 nM and false (0) in all other cases.

These recorded examples may help you get a feel for the data.
q: Hello, I'm reviewing records and need to know if IC50 of O=C1CCc2cc(C(c3ccncc3)c3cc(C(F)(F)F)cc(C(F)(F)F)c3)cc3c2N1CC3 (configuration not stated) is below 100 nM. Could you check?
a: false (0)

q: Hello, I'm reviewing records and need to know if IC50 of O=C1CCc2cc(C(c3ccc(F)cc3)c3cccnc3)cc3c2N1CC3 (configuration not stated) is below 100 nM. Could you check?
a: false (0)

q: Hello, I'm reviewing records and need to know if IC50 of O=C1CCc2cc(C(c3ccncc3)c3ccc(F)cc3)cc3c2N1CC3 (configuration not stated) is below 100 nM. Could you check?
a: false (0)

Continuing:
q: Hello, I'm reviewing records and need to know if IC50 of Cc1cccc(C(c2cccnc2)c2cc3c4c(c2)CCN4C(=O)CC3)c1 (configuration not stated) is below 100 nM. Could you check?
a: false (0)

q: Hello, I'm reviewing records and need to know if IC50 of O=C1CCc2cc(C(c3cccnc3)c3cccc(Cl)c3)cc3c2N1CC3 (configuration not stated) is below 100 nM. Could you check?
a: false (0)

q: Hello, I'm reviewing records and need to know if IC50 of COc1ccc(C(c2ccncc2)c2cc3c4c(c2)CCN4C(=O)CC3)cc1 (single isomer, unassigned; (-)) is below 100 nM. Could you check?
a: true (1)

q: Hello, I'm reviewing records and need to know if IC50 of COc1cccc(C(c2ccncc2)c2cc3c4c(c2)CCN4C(=O)CC3)c1 (configuration not stated) is below 100 nM. Could you check?
a: true (1)

q: Hello, I'm reviewing records and need to know if IC50 of "C=C(c1cccnc1)c1cc2c3c(c1)CCN3C(=O)CC2" is below 100 nM. Could you check?
a: false (0)

q: Hello, I'm reviewing records and need to know if IC50 of Cc1cccc(C(c2ccncc2)c2cc3c4c(c2)CCN4C(=O)CC3)c1 (configuration not stated) is below 100 nM. Could you check?
a: true (1)

q: Hello, I'm reviewing records and need to know if IC50 of COc1ccc(C(c2ccncc2)c2cc3c4c(c2)CCN4C(=O)CC3)cc1 (stereo in doubt; 3k) is below 100 nM. Could you check?
a: false (0)

q: Hello, I'm reviewing records and need to know if IC50 of COc1ccc(C(c2ccncc2)c2cc3c4c(c2)CCN4C(=O)CC3)cc1 (single isomer, unassigned; (+)) is below 100 nM. Could you check?
a: false (0)

q: Hello, I'm reviewing records and need to know if IC50 of COc1ccccc1C(c1cccnc1)c1cc2c3c(c1)CCN3C(=O)CC2 (configuration not stated) is below 100 nM. Could you check?
a: false (0)

q: Hello, I'm reviewing records and need to know if IC50 of CC(c1cccnc1)c1cc2c3c(c1)CCN3C(=O)CC2 (configuration not stated) is below 100 nM. Could you check?
a: false (0)

q: Hello, I'm reviewing records and need to know if IC50 of O=C1CCc2cc(C(c3ccncc3)c3cccc(F)c3)cc3c2N1CC3 (configuration not stated) is below 100 nM. Could you check?
a: true (1)

q: Hello, I'm reviewing records and need to know if IC50 of O=C1CCc2cc(C(O)c3ccncc3)cc3c2N1CC3 (configuration not stated) is below 100 nM. Could you check?
a: false (0)

q: Hello, I'm reviewing records and need to know if IC50 of O=C1CCc2cc(C(c3ccncc3)C3CCCCC3)cc3c2N1CC3 (configuration not stated) is below 100 nM. Could you check?
a: true (1)

q: Hello, I'm reviewing records and need to know if IC50 of O=C1CCc2cc(C(c3ccncc3)c3ccc(Cl)cc3)cc3c2N1CC3 (configuration not stated) is below 100 nM. Could you check?
a: true (1)

---

# system-name: Cytochrome P450 11B1, mitochondrial (Homo sapiens)
# Sequence (P15538 whole entry): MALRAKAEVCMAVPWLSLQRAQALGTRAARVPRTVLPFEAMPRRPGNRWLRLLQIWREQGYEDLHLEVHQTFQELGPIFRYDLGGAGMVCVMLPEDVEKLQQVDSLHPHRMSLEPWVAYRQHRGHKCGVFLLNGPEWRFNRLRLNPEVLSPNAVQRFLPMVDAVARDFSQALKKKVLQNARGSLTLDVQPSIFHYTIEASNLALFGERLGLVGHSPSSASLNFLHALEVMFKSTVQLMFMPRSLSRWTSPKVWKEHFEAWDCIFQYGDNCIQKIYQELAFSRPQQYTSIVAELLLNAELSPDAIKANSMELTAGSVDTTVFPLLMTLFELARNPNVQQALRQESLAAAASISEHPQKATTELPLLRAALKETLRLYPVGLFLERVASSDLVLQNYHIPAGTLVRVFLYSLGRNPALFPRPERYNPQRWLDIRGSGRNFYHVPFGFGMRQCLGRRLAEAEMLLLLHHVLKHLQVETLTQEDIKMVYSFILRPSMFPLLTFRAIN
# assay-procedure: Inhibition of human CYP11B1 expressed in hamster V79MZh cells using [1,2-3H]-11-deoxy-corticosterone as substrate
# Type: cell-based
Response field label takes Criterion met when IC50 is strictly below 800 nM and Criterion not met in all other cases.

These recorded examples may help you get a feel for the data.
q: Hello, I'm reviewing records and need to know if IC50 of "C=C(c1ccncc1)c1cc2c3c(c1)CCN3C(=O)CC2" is below 800 nM. Could you check?
a: Criterion not met

q: Hello, I'm reviewing records and need to know if IC50 of COc1ccccc1C(c1cccnc1)c1cc2c3c(c1)CCN3C(=O)CC2 (centres undefined) is below 800 nM. Could you check?
a: Criterion not met

q: Hello, I'm reviewing records and need to know if IC50 of O=C1CCc2cc(C(c3ccc(F)cc3)c3cccnc3)cc3c2N1CC3 (centres undefined) is below 800 nM. Could you check?
a: Criterion met

q: Hello, I'm reviewing records and need to know if IC50 of "C=C(c1cccnc1)c1cc2c3c(c1)CCN3C(=O)CC2" is below 800 nM. Could you check?
a: Criterion met

q: Hello, I'm reviewing records and need to know if IC50 of N#Cc1ccc(C(c2ccc(C#N)cc2)n2cncn2)cc1 [LETROZOLE] is below 800 nM. Could you check?
a: Criterion not met

q: Hello, I'm reviewing records and need to know if IC50 of CC(c1cccnc1)c1cc2c3c(c1)CCN3C(=O)CC2 (centres undefined) is below 800 nM. Could you check?
a: Criterion met

Continuing:
q: Hello, I'm reviewing records and need to know if IC50 of O=C1CCc2cc(C(O)c3ccncc3)cc3c2N1CC3 (centres undefined) is below 800 nM. Could you check?
a: Criterion met

q: Hello, I'm reviewing records and need to know if IC50 of O=C1CCc2cc(C(c3ccncc3)C3CCCCC3)cc3c2N1CC3 (centres undefined) is below 800 nM. Could you check?
a: Criterion not met

---

# system-name: Cytochrome P450 11B2, mitochondrial (Homo sapiens)
# Sequence (P19099 whole entry): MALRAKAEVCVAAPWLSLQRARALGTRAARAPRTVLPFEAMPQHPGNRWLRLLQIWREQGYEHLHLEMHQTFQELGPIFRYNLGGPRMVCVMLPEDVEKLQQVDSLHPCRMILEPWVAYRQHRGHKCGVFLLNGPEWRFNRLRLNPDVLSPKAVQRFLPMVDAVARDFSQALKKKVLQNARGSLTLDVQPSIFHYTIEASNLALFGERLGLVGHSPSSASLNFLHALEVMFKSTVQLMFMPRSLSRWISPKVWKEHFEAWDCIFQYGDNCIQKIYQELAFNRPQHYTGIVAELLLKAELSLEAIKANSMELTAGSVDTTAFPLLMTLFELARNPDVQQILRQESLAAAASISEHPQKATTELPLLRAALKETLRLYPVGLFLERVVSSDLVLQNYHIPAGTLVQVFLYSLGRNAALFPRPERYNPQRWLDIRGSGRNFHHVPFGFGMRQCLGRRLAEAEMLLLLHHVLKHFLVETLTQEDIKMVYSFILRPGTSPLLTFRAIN
# assay-procedure: Inhibition of human CYP11B2 expressed in hamster V79MZh cells using [1,2-3H]-11-deoxy-corticosterone as substrate
Response field label takes Yes when IC50 is strictly below 70 nM and No in all other cases.

These recorded examples may help you get a feel for the data.
q: Hello, I'm reviewing records and need to know if IC50 of O=C1CCc2cc(C(O)c3cccnc3)cc3c2N1CC3 (configuration not stated) is below 70 nM. Could you check?
a: No

q: Hello, I'm reviewing records and need to know if IC50 of O=C1CCc2cc(C(c3ccncc3)c3cccc(Cl)c3)cc3c2N1CC3 (configuration not stated) is below 70 nM. Could you check?
a: Yes

q: Hello, I'm reviewing records and need to know if IC50 of O=C1CCc2cc(C(c3ccncc3)c3cc(C(F)(F)F)cc(C(F)(F)F)c3)cc3c2N1CC3 (configuration not stated) is below 70 nM. Could you check?
a: No

q: Hello, I'm reviewing records and need to know if IC50 of COc1ccc(C(c2ccncc2)c2cc3c4c(c2)CCN4C(=O)CC3)cc1 (stereo in doubt; 3k) is below 70 nM. Could you check?
a: Yes

q: Hello, I'm reviewing records and need to know if IC50 of "C=C(c1ccncc1)c1cc2c3c(c1)CCN3C(=O)CC2" is below 70 nM. Could you check?
a: No

Continuing:
q: Hello, I'm reviewing records and need to know if IC50 of CC(C)C(c1ccncc1)c1cc2c3c(c1)CCN3C(=O)CC2 (configuration not stated) is below 70 nM. Could you check?
a: No

q: Hello, I'm reviewing records and need to know if IC50 of O=C1CCc2cc(C(O)c3ccncc3)cc3c2N1CC3 (configuration not stated) is below 70 nM. Could you check?
a: No

q: Hello, I'm reviewing records and need to know if IC50 of O=C1CCc2cc(C(c3ccncc3)c3ccc(Cl)cc3)cc3c2N1CC3 (configuration not stated) is below 70 nM. Could you check?
a: Yes

q: Hello, I'm reviewing records and need to know if IC50 of "O=C1CCc2cc(Cc3ccncc3)cc3c2N1CC3" is below 70 nM. Could you check?
a: No

q: Hello, I'm reviewing records and need to know if IC50 of O=C1CCc2cc(C(c3ccccc3)c3ccncc3)cc3c2N1CC3 (configuration not stated) is below 70 nM. Could you check?
a: No

q: Hello, I'm reviewing records and need to know if IC50 of O=C1CCc2cc(C(O)(c3ccccc3)c3ccncc3)cc3c2N1CC3 (configuration not stated) is below 70 nM. Could you check?
a: No

q: Hello, I'm reviewing records and need to know if IC50 of COc1cccc(C(c2ccncc2)c2cc3c4c(c2)CCN4C(=O)CC3)c1 (configuration not stated) is below 70 nM. Could you check?
a: No

q: Hello, I'm reviewing records and need to know if IC50 of "O=C1CCc2cc(Cc3cccnc3)cc3c2N1CC3" is below 70 nM. Could you check?
a: No

q: Hello, I'm reviewing records and need to know if IC50 of COc1ccccc1C(c1cccnc1)c1cc2c3c(c1)CCN3C(=O)CC2 (configuration not stated) is below 70 nM. Could you check?
a: No

q: Hello, I'm reviewing records and need to know if IC50 of O=C1CCc2cc(C(c3ccccc3)c3cccnc3)cc3c2N1CC3 (configuration not stated) is below 70 nM. Could you check?
a: No

q: Hello, I'm reviewing records and need to know if IC50 of COc1ccc(C(c2ccncc2)c2cc3c4c(c2)CCN4C(=O)CC3)cc1 (single isomer, unassigned; (-)) is below 70 nM. Could you check?
a: No

q: Hello, I'm reviewing records and need to know if IC50 of CC(c1cccnc1)c1cc2c3c(c1)CCN3C(=O)CC2 (configuration not stated) is below 70 nM. Could you check?
a: Yes
